Here, each record is paired with measured shrunken log2 fold change data.
System: Escherichia coli TOP10
Assay: shrunken log2 fold change of peptide-encoding DNA abundance (4.5 h post-induction vs induction); higher = less antimicrobial activity (less host growth inhibition)
Details: time post-induction: 4.5 h; library: site-saturation at positions 5, 18, 19, 20
Could you respond with only the numeric value?

Worked cases, shrunken log2 fold change given:
RRIRLRPPRLPRPRPRPSVNPRP    -0.822
RRIRQRPPRLPRPRPRPWRCPRP    -0.149
RRIRDRPPRLPRPRPRPGHIPRP    -0.0814
RRIRNRPPRLPRPRPRPVHWPRP    0.384
RRIRKRPPRLPRPRPRPHRCPRP    0.0753
RRIRARPPRLPRPRPRPDNIPRP    -0.256

// switching to the query sequence
query: May I ask what shrunken log2 fold change has been recorded for RRIRIRPPRLPRPRPRPEWEPRP ?
result: 0.068

* * *

Reported shrunken log2 fold change values are given for each entry in this list.
Test system: Escherichia coli TOP10
Assay: shrunken log2 fold change of peptide-encoding DNA abundance (4.5 h post-induction vs induction); higher = less antimicrobial activity (less host growth inhibition)
Settings: time post-induction: 4.5 h; library: site-saturation at positions 5, 18, 19, 20
Answer with a bare number; do not write a unit.

RRIRTRPPRLPRPRPRPLIGPRP    -0.413
RRIRNRPPRLPRPRPRPEVIPRP    0.00635
RRIRKRPPRLPRPRPRPPWCPRP    0.401
RRIRDRPPRLPRPRPRPSMTPRP    0.237
RRIRIRPPRLPRPRPRPDGVPRP    -0.0166
RRIRRRPPRLPRPRPRPCWDPRP    0.234
RRIRKRPPRLPRPRPRPVKIPRP    0.158
RRIRMRPPRLPRPRPRPPVRPRP    0.458
RRIRLRPPRLPRPRPRPSDNPRP    -0.49
RRIRARPPRLPRPRPRPLSDPRP    0.248

query: For RRIRFRPPRLPRPRPRPFQWPRP , what is its reported shrunken log2 fold change?
result: -0.507

* * *

Test system: Escherichia coli TOP10
Experiment: shrunken log2 fold change of peptide-encoding DNA abundance (4.5 h post-induction vs induction); higher = less antimicrobial activity (less host growth inhibition)
Settings: time post-induction: 4.5 h; library: site-saturation at positions 5, 18, 19, 20
Experimental Readout: shrunken log2 fold change

query: Name the recorded shrunken log2 fold change for RRIRFRPPRLPRPRPRPDTLPRP .
result: -0.0946

query: Recorded shrunken log2 fold change for RRIRHRPPRLPRPRPRPSLKPRP , please?
result: -0.488

query: Report shrunken log2 fold change for RRIRARPPRLPRPRPRPNVFPRP please.
result: 0.258

query: I have this sequence here, RRIRNRPPRLPRPRPRPCKTPRP , and I need its recorded shrunken log2 fold change.
result: -0.129

query: I'd like to know its shrunken log2 fold change. The sequence in question is RRIRQRPPRLPRPRPRPRGTPRP
result: 0.313

query: What shrunken log2 fold change value was documented for this sequence, RRIRGRPPRLPRPRPRPIMAPRP ?
result: 0.401

query: // shrunken log2 fold change lookup, key: RRIRNRPPRLPRPRPRPSFRPRP
result: 0.0751

query: Which shrunken log2 fold change is listed for RRIRKRPPRLPRPRPRPSNHPRP ?
result: -0.347

* * *

System: Escherichia coli TOP10
Experiment: shrunken log2 fold change of peptide-encoding DNA abundance (4.5 h post-induction vs induction); higher = less antimicrobial activity (less host growth inhibition)
Conditions: time post-induction: 4.5 h; library: site-saturation at positions 5, 18, 19, 20
Record Y whenever shrunken log2 fold change is at -0.07 or higher; record N when lower.

Below, 8 sequences whose answers are already recorded.
RRIRARPPRLPRPRPRPNPYPRP    N
RRIRERPPRLPRPRPRPICTPRP    N
RRIRGRPPRLPRPRPRPYWVPRP    N
RRIRIRPPRLPRPRPRPRSPPRP    Y
RRIRERPPRLPRPRPRPNAAPRP    Y
RRIRNRPPRLPRPRPRPTHIPRP    N
RRIRLRPPRLPRPRPRPFQGPRP    Y
RRIRHRPPRLPRPRPRPWVVPRP    N

query: Determine whether this sequence has shrunken log2 fold change no lower than -0.07: RRIRYRPPRLPRPRPRPVHVPRP
result: N

query: Exam item: decide whether the reported shrunken log2 fold change for RRIRKRPPRLPRPRPRPHVYPRP is at least -0.07.
result: Y

query: For this sequence, is measured shrunken log2 fold change -0.07 or higher? RRIRARPPRLPRPRPRPINGPRP
result: Y

query: Check if shrunken log2 fold change >= -0.07 (inclusive). Item: RRIRSRPPRLPRPRPRPCPKPRP
result: Y

query: // inclusive: shrunken log2 fold change at least -0.07? input: RRIRRRPPRLPRPRPRPVHHPRP
result: N

query: Reported shrunken log2 fold change at or above -0.07? RRIRQRPPRLPRPRPRPFYNPRP
result: N

query: Does RRIRFRPPRLPRPRPRPMFNPRP have a reported shrunken log2 fold change of at least -0.07?
result: N

query: Identify whether the reported shrunken log2 fold change of the following sequence is -0.07 or greater: RRIRVRPPRLPRPRPRPMQFPRP
result: Y

query: Tell me whether shrunken log2 fold change is at least -0.07 here: RRIRIRPPRLPRPRPRPHRTPRP
result: N

query: # check: shrunken log2 fold change of RRIRGRPPRLPRPRPRPLLSPRP is greater than or equal to -0.07
result: Y

query: State whether the measured shrunken log2 fold change reaches -0.07, counting equality as reaching it, for RRIRDRPPRLPRPRPRPGVSPRP
result: Y

query: # check: shrunken log2 fold change of RRIRVRPPRLPRPRPRPHMCPRP is greater than or equal to -0.07
result: N

query: Tell me whether shrunken log2 fold change is at least -0.07 here: RRIRGRPPRLPRPRPRPASVPRP
result: Y

* * *

Test system: Escherichia coli TOP10
Test: shrunken log2 fold change of peptide-encoding DNA abundance (4.5 h post-induction vs induction); higher = less antimicrobial activity (less host growth inhibition)
Conditions: time post-induction: 4.5 h; library: site-saturation at positions 5, 18, 19, 20
Mark satisfied for reported shrunken log2 fold change of -0.1 or greater; mark not satisfied for anything smaller.

Consider the worked cases shown below.
RRIRGRPPRLPRPRPRPVFIPRP    satisfied
RRIRPRPPRLPRPRPRPITNPRP    not satisfied
RRIRNRPPRLPRPRPRPVEMPRP    satisfied
RRIRERPPRLPRPRPRPDICPRP    not satisfied
RRIRIRPPRLPRPRPRPFDHPRP    not satisfied
RRIRCRPPRLPRPRPRPDEEPRP    satisfied
RRIRWRPPRLPRPRPRPVQRPRP    satisfied
RRIRIRPPRLPRPRPRPRRMPRP    not satisfied
RRIRLRPPRLPRPRPRPLPLPRP    satisfied
RRIRIRPPRLPRPRPRPARDPRP    not satisfied

# input for lookup
query: Hello, I need to know if RRIRGRPPRLPRPRPRPPEDPRP has measured shrunken log2 fold change not below -0.1. Thanks!
result: satisfied

* * *

Quick reference for shrunken log2 fold change among some sequences
Tested on: Escherichia coli TOP10
Assay: shrunken log2 fold change of peptide-encoding DNA abundance (4.5 h post-induction vs induction); higher = less antimicrobial activity (less host growth inhibition)
Conditions: time post-induction: 4.5 h; library: site-saturation at positions 5, 18, 19, 20
// print number alone

RRIRPRPPRLPRPRPRPSKKPRP    -0.108
RRIRQRPPRLPRPRPRPKDEPRP    0.0571
RRIRVRPPRLPRPRPRPDMQPRP    -0.081
RRIRIRPPRLPRPRPRPYHPPRP    -0.0475
RRIRDRPPRLPRPRPRPNQEPRP    -0.0564

query: For the sequence shown here, RRIRARPPRLPRPRPRPRNNPRP , give the reported shrunken log2 fold change.
result: -0.101

query: Give its shrunken log2 fold change value. Item: RRIRRRPPRLPRPRPRPRTKPRP
result: 0.0753

query: # input sequence: RRIRFRPPRLPRPRPRPFFNPRP ; wanted: its shrunken log2 fold change
result: -0.313

* * *

Tested on: Escherichia coli TOP10;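 note: peptides expressed intracellularly from a pBAD plasmid library in pooled LB shake-flask culture, induced with 0.3% L-arabinose, DNA abundance read by NGS, three biological replicates, DESeq2 with apeglm shrinkage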
Assay: shrunken log2 fold change of peptide-encoding DNA abundance (4.5 h post-induction vs induction); higher = less antimicrobial activity (less host growth inhibition)
Conditions: time post-induction: 4.5 h; library: site-saturation at positions 5, 18, 19, 20
Label scheme for shrunken log2 fold change: lower than 0.02 is Not met, 0.02 and above is Met.

query: Assess whether reported shrunken log2 fold change for RRIRRRPPRLPRPRPRPWWDPRP sits at 0.02 or higher.
result: Not met

query: Exam item: decide whether the reported shrunken log2 fold change for RRIRDRPPRLPRPRPRPCGWPRP is at least 0.02.
result: Met

query: Say whether RRIRGRPPRLPRPRPRPTEYPRP shows shrunken log2 fold change of 0.02 or more.
result: Not met

query: Please check the record RRIRFRPPRLPRPRPRPNNSPRP and state if its shrunken log2 fold change is at or above 0.02.
result: Not met

All values here come from the supplement of paper PMC9112550.
